Assay remarks: in vivo
Reported conditions: BALB/c nude, mouse, in vivo, iv, total radioactivity, % ID/g Blood
Simple rule here: tissue uptake at 4 h less than 0.9 %ID/g is condition met, otherwise condition not met.

API: query returns whether the compound falls strictly under 0.9 %ID/g in tissue uptake at 4 h. Query: C[C@@H](O)[C@H](NC(=O)[C@@H]1CSSC[C@H](NC(=O)[C@@H](Cc2ccccc2)NC(=O)[C@H](CCCCNC(=O)COCCOCCNC(=O)c2cccc(NC(=O)N[C@@H]3CN(C4CCCCC4)c4ccccc4N(CC(=O)C(C)(C)C)C3=O)c2)NC(=O)CN2CCN(CC(=O)O)CCN(CC(=O)O)CCN(CC(=O)O)CC2)C(=O)N[C@@H](Cc2ccc(O)cc2)C(=O)N[C@H](Cc2c[nH]c3ccccc23)C(=O)N[C@@H](CCCCN)C(=O)N[C@@H]([C@@H](C)O)C(=O)N1)C(=O)O [^177Lu-I-36, metal not drawn]
condition not met

API: query returns whether the compound falls strictly under 0.9 %ID/g in tissue uptake at 4 h. Query: CCCC[C@H](NC(=O)[C@H](Cc1c[nH]c2ccccc12)NC(=O)CNC(=O)[C@H](Cc1ccc(O)cc1)NC(=O)[C@H](C)NC(=O)[C@@H](CCC(=O)O)NC(=O)[C@@H](CCC(=O)O)NC(=O)[C@@H](CCC(=O)O)NC(=O)[C@@H](CCC(=O)O)NC(=O)[C@@H](CCC(=O)O)NC(=O)[C@@H](CCC(=O)O)NC(=O)CN1CCN(CC(=O)O)CCN(CC(=O)O)CCN(CC(=O)O)CC1)C(=O)N[C@@H](CC(=O)O)C(=O)N[C@@H](Cc1ccccc1)C(N)=O [^177Lu-C-2, metal not drawn, reference compound]
condition met

API: query returns whether the compound falls strictly under 0.9 %ID/g in tissue uptake at 4 h. Query: C[C@@H](O)[C@H](NC(=O)[C@@H]1CSSC[C@H](NC(=O)[C@@H](Cc2ccccc2)NC(=O)COCCOCCNC(=O)[C@H](CCCCNC(=O)c2cccc(NC(=O)N[C@@H]3CN(C4CCCCC4)c4ccccc4N(CC(=O)C(C)(C)C)C3=O)c2)NC(=O)CN2CCN(CC(=O)O)CCN(CC(=O)O)CCN(CC(=O)O)CC2)C(=O)N[C@@H](Cc2ccc(O)cc2)C(=O)N[C@H](Cc2c[nH]c3ccccc23)C(=O)N[C@@H](CCCCN)C(=O)N[C@@H]([C@@H](C)O)C(=O)N1)C(=O)O [Compound 177Lu-I-37, metal not drawn]
condition not met

API: query returns whether the compound falls strictly under 0.9 %ID/g in tissue uptake at 4 h. Query: C[C@@H](O)[C@H](NC(=O)[C@@H]1CSSC[C@H](NC(=O)[C@@H](Cc2ccccc2)NC(=O)[C@H](CCCCNC(=O)c2cccc(NC(=O)N[C@@H]3CN(C4CCCCC4)c4ccccc4N(CC(=O)C(C)(C)C)C3=O)c2)NC(=O)COCCOCCNC(=O)CN2CCN(CC(=O)O)CCN(CC(=O)O)CCN(CC(=O)O)CC2)C(=O)N[C@@H](Cc2ccc(O)cc2)C(=O)N[C@H](Cc2c[nH]c3ccccc23)C(=O)N[C@@H](CCCCN)C(=O)N[C@@H]([C@@H](C)O)C(=O)N1)C(=O)O [^177Lu-I-35, metal not drawn]
condition not met

API: query returns whether the compound falls strictly under 0.9 %ID/g in tissue uptake at 4 h. Query: CC(C)(C)C(=O)CN1C(=O)[C@H](NC(=O)Nc2cccc(C(=O)N[C@@H](CCC(=O)N[C@@H](CCC(=O)N[C@@H](CCC(=O)N[C@@H](CCCCNC(=O)COCCOCCNC(=O)COCCOCCNC(=O)CCC(C(=O)O)N3CCN(CC(=O)O)CCN(CC(=O)O)CCN(CC(=O)O)CC3)C(N)=O)C(=O)O)C(=O)O)C(=O)O)c2)CN(C2CCCCC2)c2ccccc21 (stereo partly drawn) [^177Lu-C-4, metal not drawn, reference compound]
condition met
